- Test system: C. neoformans (H99 strain)
- Assay text: microbe, parasite or virus in culture
- Type: cell-based, Cryptococcus neoformans
- Applied conditions: Cryptococcus neoformans, read-out: C. neoformans (H99 strain) IC50 [±SD]
Endpoint label: IC50 (nM)

In [3]: df
Out[3]:
                                   compound  value_observed
0  O=C(Nc1ncc(Cc2cccc3sccc23)s1)C1CCCCC1 [Compound 22b]             370
